Assay Protocol: Cytotoxicity against human PBM cells
Type: cell-based
Run Parameters: PBMC
Response field class: string, computed from recorded IC50 by ranges Low (below 30 µM), Mid (30 µM to below 40 µM), High (40 µM or more)

Compound: C=CCc1cc(-c2ccc(O)c(CC=C)c2)ccc1O
Qualitative Label: High
--
Compound: C=CCc1ccc(O)c(-c2cc(CC=C)ccc2O)c1
Qualitative Label: Mid
--
Compound: C=CCc1cc(Cc2ccc(O)c(CC=C)c2)ccc1O
Qualitative Label: Mid
--
Compound: C=CCc1cc(C(c2ccc(O)c(CC=C)c2)c2ccccn2)ccc1O
Qualitative Label: Low
--
Compound: C=CCc1ccc(O)c(-c2ccc(O)c(CC=C)c2)c1
Qualitative Label: Low
--
Compound: C=CCc1cc(/C(CC)=C(\CC)c2ccc(O)c(CC=C)c2)ccc1O
Qualitative Label: High
--
Compound: C=CCc1cccc(-c2cccc(CC=C)c2O)c1O
Qualitative Label: High
--
Compound: C=CCc1cc(-c2cccc(CC=C)c2O)ccc1O
Qualitative Label: Mid
--
Compound: C=CCc1cc(C(C)(C)c2ccc(O)c(CC=C)c2)ccc1O
Qualitative Label: High
--
Compound: C=CCc1cc(-c2ncc(O)cn2)ccc1O
Qualitative Label: Mid
--
Compound: C=CCc1cc(C(=C(Cl)Cl)c2ccc(O)c(CC=C)c2)ccc1O
Qualitative Label: High
--
Compound: C=CCc1cc(C2(c3ccc(O)c(CC=C)c3)CCCCC2)ccc1O
Qualitative Label: High
